Value source: paper PMC7932537

Test system: MMP-9
Assay: Substrate phage display with NGS: relative probability (RP) of P3-P1' tetramer clusters;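 further: ratio of tetramer probability after protease selection to that in naive phage library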
Format: biochemical, human
Settings: MMP9; RP of the P3-P1' tetramer contained in the hexamer substrate (substrate phage display, NGS)
metric: relative probability (RP)

| substance | target_desc | obs_value |
| --- | --- | --- |
| QSPINL | MMP-9 | 44.8884 |
| PMALMD | MMP-9 | 48.9468 |
| GPAGIR | MMP-9 | 45.1083 |
| PVAIPM | MMP-9 | 44.9732 |
| PRPQAA | MMP-9 | 37.3898 |
| APALWI | MMP-9 | 27.3829 |
| PGPIGI | MMP-9 | 46.0584 |
